Values from PubChem BioAssay (EPA / NIEHS)

# experiment-description: CCTE_Shafer_MEA_dev_firing_rate_mean: CCTE's Neural Network Formation Assay for Mean Firing Rate, Shafer Lab (AID 2284031);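 further: AUC of well mean spike rate recorded on DIV 5 7 9 and 12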
Activity calls are given as the source filed them. How the source made its calls: active means hit-call score of the fitted dose curve at least 0.9, where 1 is the maximum; inactive means score below 0.9.
Labels: active, inactive

{"columns": ["item-smiles", "class"],
 "data": [
  ["CCCc1cc(=O)[nH]c(=S)[nH]1", "inactive"],
  ["FC(F)(F)C(F)(F)C(F)(F)C(F)(F)C(F)(F)C(F)(F)CCI", "inactive"],
  ["O=c1[nH]cc(F)c(=O)[nH]1", "active"],
  ["C[Si]1(C)O[Si](C)(C)O[Si](C)(C)O[Si](C)(C)O1", "inactive"],
  ["OC[C@@H](O)[C@@H](O)[C@H](O)[C@H](O)CO", "inactive"],
  ["CC(C)c1ccc(C(=O)N=C(N)N)cc1S(C)(=O)=O", "inactive"],
  ["Cc1cc(=O)[nH]c(=S)[nH]1", "inactive"],
  ["CC(=O)Oc1ccccc1C(=O)O", "inactive"],
  ["C=CCc1ccc(O)c(OC)c1", "inactive"]
]}
